# Species on record: Homo sapiens
# protocol: To identify inhibition of the IFN signalling (Jak-Stat) pathway via expression of an eGFP reporter gene under the control of an IFN-stimulated response element (ISRE) containing MxA promoter.
# Type: functional
# Parameters: scale not given: direction of the effect not stated beside the values
# condition parameters: 30 µM
Respond with Satisfied for Percent Effect values of 20% and above, Not satisfied for values below.

Study these solved cases before continuing.
COCCN1C[C@H]2[C@@H](C1)N(Cc1ccc(C)o1)CC[C@H]2OC ... Not satisfied
O=C(CSC1CCc2ccccc2NC1=O)NCCO (stereo unspecified) ... Satisfied
CC(C)NC(=O)CC1COC2(CCN(Cc3ccccc3)CC2)C1 (stereo unspecified) ... Not satisfied
Cc1noc(C)c1C(=O)NCc1ccc(N2CCOC(C)C2)nc1 (stereo unspecified) ... Not satisfied

Now let's try a different one.
Evaluate Cc1cccn2cc(CC(=O)N3CCCC(n4cncn4)C3)nc12 (stereo unspecified) : Percent Effect at minimum 20%?
Not satisfied
